Test: Cytotoxicity against human SH-SY5Y cells assessed as cell viability at 13 uM after 24 hrs by MTT assay
Assay type: cell-based
Conditions: read-out: Activity
measured.property: viability at 24 h, 13 µM (%)
Answers are plain numbers, in %.

Determine from records and report viability at 24 h, 13 µM for `Cc1c(C)c2ccc(OCCN3CCN(CCCNc4c5c(nc6ccccc46)CCCC5)CC3)cc2oc1=O` 77.1

----------
Give Papp at 16 h for every item shown.
Assay: in vitro
Settings: PAMPA
Description: Permeability of the compound after 16 hrs by PAMPA
Give bare numbers, in ×10⁻⁶ cm/s.

Reference set, count: 4
Nc1cc(=O)oc2cc(OCCN3CCN(CCCNc4c5c(nc6ccccc46)CCCC5)CC3)ccc12	0.78
COc1cc(=O)oc2cc(OCCN3CCN(CCCNc4c5c(nc6ccccc46)CCCC5)CC3)ccc12	1.96
O=c1ccc2ccc(OCCCN3CCN(CCCNc4c5c(nc6ccccc46)CCCC5)CC3)cc2o1	1.45
CCOc1cc(=O)oc2cc(OCCN3CCN(CCCNc4c5c(nc6ccccc46)CCCC5)CC3)ccc12	2.74

Determine from records and report Papp at 16 h for `Cc1cc(=O)oc2cc(OCCN3CCN(CCCNc4c5c(nc6ccccc46)CCCC5)CC3)ccc12` 1.9

----------
Give IC50 for every item shown.
Target: UniProtKB P22303
Sequence (P22303 whole entry): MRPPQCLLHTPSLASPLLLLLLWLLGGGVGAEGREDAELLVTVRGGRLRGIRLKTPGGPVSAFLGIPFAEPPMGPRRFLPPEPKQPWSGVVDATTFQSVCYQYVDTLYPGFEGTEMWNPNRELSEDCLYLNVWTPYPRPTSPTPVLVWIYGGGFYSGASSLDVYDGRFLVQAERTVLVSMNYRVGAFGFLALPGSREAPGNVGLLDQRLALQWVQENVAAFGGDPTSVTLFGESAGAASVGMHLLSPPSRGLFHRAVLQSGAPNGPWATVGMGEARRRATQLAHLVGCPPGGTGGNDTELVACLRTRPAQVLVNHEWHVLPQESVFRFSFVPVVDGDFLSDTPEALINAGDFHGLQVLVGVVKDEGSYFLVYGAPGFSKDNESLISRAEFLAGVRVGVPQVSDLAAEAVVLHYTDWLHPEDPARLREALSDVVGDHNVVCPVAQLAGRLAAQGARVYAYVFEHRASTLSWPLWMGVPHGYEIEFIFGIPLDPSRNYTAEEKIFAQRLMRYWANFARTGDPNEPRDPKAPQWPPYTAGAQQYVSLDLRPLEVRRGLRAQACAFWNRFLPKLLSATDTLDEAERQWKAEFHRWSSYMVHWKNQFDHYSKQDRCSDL

Cc1c(Cl)c(=O)oc2cc(OCCN3CCN(CCCNc4c5c(nc6ccccc46)CCCC5)CC3)ccc12	0.0244 µM

Here's the next entry for you.
Determine from records and report IC50 for `Cc1c(C)c2ccc(OCCN3CCN(CCCNc4c5c(nc6ccccc46)CCCC5)CC3)cc2oc1=O` 0.0161 µM

----------
Assay: Cytotoxicity against human SH-SY5Y cells assessed as cell viability at 0.81 uM after 24 hrs by MTT assay
Type: cell-based
Settings: read-out: Activity
measured.property: viability at 24 h, 0.81 µM (%)
Numbers only, in %.

Determine from records and report viability at 24 h, 0.81 µM for `Cc1c(C)c2ccc(OCCN3CCN(CCCNc4c5c(nc6ccccc46)CCCC5)CC3)cc2oc1=O` 101

----------
Target: Acetylcholinesterase (Electrophorus electricus, UniProt O42275)
Sequence (O42275 whole entry): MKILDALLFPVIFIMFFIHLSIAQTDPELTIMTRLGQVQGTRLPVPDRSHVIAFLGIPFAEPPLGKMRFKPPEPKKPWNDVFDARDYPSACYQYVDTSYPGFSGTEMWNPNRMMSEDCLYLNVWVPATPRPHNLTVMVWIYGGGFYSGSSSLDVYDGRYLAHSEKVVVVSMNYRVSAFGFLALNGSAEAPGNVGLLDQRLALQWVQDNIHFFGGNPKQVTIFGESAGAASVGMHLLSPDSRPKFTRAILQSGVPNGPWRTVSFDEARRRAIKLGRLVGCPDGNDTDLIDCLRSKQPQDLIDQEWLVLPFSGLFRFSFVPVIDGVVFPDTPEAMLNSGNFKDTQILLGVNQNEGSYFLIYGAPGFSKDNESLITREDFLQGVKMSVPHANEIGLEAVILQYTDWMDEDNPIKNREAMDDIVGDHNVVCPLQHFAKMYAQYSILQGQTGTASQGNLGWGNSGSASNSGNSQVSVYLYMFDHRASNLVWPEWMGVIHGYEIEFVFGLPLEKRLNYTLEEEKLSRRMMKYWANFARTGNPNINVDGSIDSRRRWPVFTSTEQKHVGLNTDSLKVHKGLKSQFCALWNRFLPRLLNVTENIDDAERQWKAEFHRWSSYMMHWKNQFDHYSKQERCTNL
measured.property: Ki

Determine from records and report Ki for `Cc1c(C)c2ccc(OCCN3CCN(CCCNc4c5c(nc6ccccc46)CCCC5)CC3)cc2oc1=O` 34.4 nM

----------
Target: Cholinesterase (Equus caballus, UniProt P81908)
Sequence (P81908 whole entry): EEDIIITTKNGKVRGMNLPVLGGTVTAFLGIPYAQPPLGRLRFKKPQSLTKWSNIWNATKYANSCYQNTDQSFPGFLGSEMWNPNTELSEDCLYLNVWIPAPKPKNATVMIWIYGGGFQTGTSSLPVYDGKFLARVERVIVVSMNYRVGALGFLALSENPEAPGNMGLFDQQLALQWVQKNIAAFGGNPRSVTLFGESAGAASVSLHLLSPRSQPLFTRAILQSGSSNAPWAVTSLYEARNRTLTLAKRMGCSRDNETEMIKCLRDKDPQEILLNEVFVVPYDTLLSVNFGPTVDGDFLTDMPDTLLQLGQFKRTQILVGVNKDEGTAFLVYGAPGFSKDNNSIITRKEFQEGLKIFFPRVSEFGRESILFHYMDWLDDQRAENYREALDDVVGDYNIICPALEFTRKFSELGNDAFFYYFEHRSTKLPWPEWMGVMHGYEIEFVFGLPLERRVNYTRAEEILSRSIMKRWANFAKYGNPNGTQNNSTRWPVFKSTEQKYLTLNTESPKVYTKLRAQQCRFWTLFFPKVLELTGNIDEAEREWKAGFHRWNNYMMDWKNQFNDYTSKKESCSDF
Give IC50 for every item shown.
Hey, just the number and the unit after it is fine.

Reference set, count: 3
O=c1ccc2ccc(OCCCN3CCN(CCNc4c5c(nc6ccccc46)CCCC5)CC3)cc2o1	16.1 nM
O=c1ccc2ccc(OCCN3CCN(CCCNc4c5c(nc6ccccc46)CCCC5)CC3)cc2o1	38 nM
O=c1oc2cc(OCCN3CCN(CCCNc4c5c(nc6ccccc46)CCCC5)CC3)ccc2c2c1CCCC2	159 nM

Provide IC50 values for the following items, in order.
1. Cc1cc(=O)oc2cc(OCCN3CCN(CCCNc4c5c(nc6ccccc46)CCCC5)CC3)ccc12
2. Cc1cc2ccc(OCCN3CCN(CCCNc4c5c(nc6ccccc46)CCCC5)CC3)cc2oc1=O
3. COc1cc(=O)oc2cc(OCCN3CCN(CCCNc4c5c(nc6ccccc46)CCCC5)CC3)ccc12
4. O=c1ccc2ccc(OCCCCN3CCN(CCNc4c5c(nc6ccccc46)CCCC5)CC3)cc2o1
5. O=c1ccc2ccc(OCCCCCN3CCN(CCNc4c5c(nc6ccccc46)CCCC5)CC3)cc2o1

1: 50.8 nM; 2: 55 nM; 3: 116 nM; 4: 20.9 nM; 5: 32.2 nM

Determine from records and report IC50 for `O=c1ccc2ccc(OCCCCCCN3CCN(CCNc4c5c(nc6ccccc46)CCCC5)CC3)cc2o1` 58.6 nM
